Measured Target: T1, recombinant human VEGF165 (human, UniProt P15692-4 27-191)
T1 construct: also called hVEGF165; rhVEGF165
T1 sequence (P15692 other isoform, or with tags, fused parts or gaps limits assumed): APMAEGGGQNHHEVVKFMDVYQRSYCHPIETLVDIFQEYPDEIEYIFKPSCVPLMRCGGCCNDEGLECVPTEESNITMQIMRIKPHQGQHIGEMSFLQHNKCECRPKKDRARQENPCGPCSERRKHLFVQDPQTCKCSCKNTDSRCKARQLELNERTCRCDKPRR
Assay Procedure: VEGF165/hVEGFR1-Fc competition AlphaScreen
Protocol: Finally, streptavidin donor beads (20 μg/ml) are added and after 1 hour of incubation in the dark, fluorescence is measured on the Envision microplate reader.
pIC50: −log10 of the molar value.

Binder	pIC50
VEGFBII025 (VHH, biparatopic bivalent VHH in one chain; also called VEGFBII10E07-40GS-23B04) EVQLVESGGGLVQAGGSLRLSCAASGRTFSNYAMGWFRQAPGKERVLVADISSSGINTYVADAVKGRFTISRDNAKNTVYLQMNSLKPEDTAVYYCAASAWWYSQMARDNYRYWGQGTQVTVSSGGGGSGGGGSGGGGSGGGGSGGGGSGGGGSGGGGSGGGGSEVQLVESGGGLVQTGDSLRLSCEVSGRTFSSYSMGWFRQAQGKEREFVVAISKGGYKYDSVSLEGRFTISKDNAKNTVYLQINSLKPEDTAVYYCASSRAYGSSRLRLADTYEYWGQGTQVTVSS	10.15
VEGFBII021 (VHH, biparatopic bivalent VHH in one chain; also called VEGFBII23B04-40GS-5B05) EVQLVESGGGLVQTGDSLRLSCEVSGRTFSSYSMGWFRQAQGKEREFVVAISKGGYKYDSVSLEGRFTISKDNAKNTVYLQINSLKPEDTAVYYCASSRAYGSSRLRLADTYEYWGQGTQVTVSSGGGGSGGGGSGGGGSGGGGSGGGGSGGGGSGGGGSGGGGSEVQLVESGGGLVQPGGSLRLSCVASGIRFMSMAWYRQAPGKHRELVARISSGGTTAYVDSVKGRFTISRDNSKNTVYLQMNSLKAEDTAVYYCNTFSSRPNPWGAGTQVTVSS	10.92

The values you see were collected from patent US20170247475A1.
